- assay.explanation: Particle size distribution test (laser particle size analyzer, wet process)
- Assay type: physicochemical
- condition.context: volume distribution, Isopar G
// reported D10 for each item listed
measured.quantity: D10 (μm)

> print(dat)
                                   molecule  units.text  experimental.value
1  CC(C)Oc1ccc(-c2nc(-c3cccc4c3CC[C@@H]4NCCO)no2)cc1C#N [Form CS1, ozanimod]          μm                3.15
2  CC(C)Oc1ccc(-c2nc(-c3cccc4c3CC[C@@H]4NCCO)no2)cc1C#N [Form CS5, ozanimod]          μm                6.55
3  CC(C)Oc1ccc(-c2nc(-c3cccc4c3CC[C@@H]4NCCO)no2)cc1C#N [Form CS3, ozanimod]          μm               20.36
4  CC(C)Oc1ccc(-c2nc(-c3cccc4c3CC[C@@H]4NCCO)no2)cc1C#N [Form CS6, ozanimod]          μm               12.87
5  CC(C)Oc1ccc(-c2nc(-c3cccc4c3CC[C@@H]4NCCO)no2)cc1C#N [Form CS2, ozanimod]          μm                5.78

----------
// reported 1 week purity % for each item listed
- assay.explanation: Stability assessment in constant temperature and humidity chambers (HPLC purity, XRPD crystalline form)
- Format: physicochemical
- condition.context: 25° C./60% RH, 1 week, HPLC
measured.quantity: 1 week purity % (%)

> print(dat)
                                   compound  experimental.value
1  CC(C)Oc1ccc(-c2nc(-c3cccc4c3CC[C@@H]4NCCO)no2)cc1C#N [Form CS2, ozanimod]               99.85
2  CC(C)Oc1ccc(-c2nc(-c3cccc4c3CC[C@@H]4NCCO)no2)cc1C#N [Form CS1, ozanimod]               99.12
3  CC(C)Oc1ccc(-c2nc(-c3cccc4c3CC[C@@H]4NCCO)no2)cc1C#N [Form CS3, ozanimod]               99.53
4  CC(C)Oc1ccc(-c2nc(-c3cccc4c3CC[C@@H]4NCCO)no2)cc1C#N [Form CS6, ozanimod]               98.44

----------
- assay.explanation: Stability assessment in constant temperature and humidity chambers (HPLC purity, XRPD crystalline form)
- Type: physicochemical
- condition.context: 40° C./75% RH, 4 weeks, HPLC
// reported 4 week purity % for each item listed
measured.quantity: 4 week purity % (%)

> print(dat)
                                   compound  units.text  experimental.value
1  CC(C)Oc1ccc(-c2nc(-c3cccc4c3CC[C@@H]4NCCO)no2)cc1C#N [Form CS1, ozanimod]           %               98.92
2  CC(C)Oc1ccc(-c2nc(-c3cccc4c3CC[C@@H]4NCCO)no2)cc1C#N [Form CS3, ozanimod]           %               99.17
3  CC(C)Oc1ccc(-c2nc(-c3cccc4c3CC[C@@H]4NCCO)no2)cc1C#N [Form CS2, ozanimod]           %               99.55
4  CC(C)Oc1ccc(-c2nc(-c3cccc4c3CC[C@@H]4NCCO)no2)cc1C#N [Form CS6, ozanimod]           %               97.97

FYI, the data here is from patent US11680050B2.
